Endpoint summary: Ki, system: UniProt:P06493, multiple sources combined.
Label true when Ki is strictly below 900 nM; otherwise label false.

Test smiles: COc1ccccc1C(=O)c1cnc(Nc2ccc(N3CCN(C)CC3)cc2)nc1N
Category label: false
//
Test smiles: CC(=O)N1CCN(c2ccc(Nc3nccc(-c4sc(C)nc4C)n3)cc2)CC1
Category label: false
//
Test smiles: COc1ccccc1C(=O)c1cnc(NC2CCN(C)CC2)nc1N
Category label: false
//
Test smiles: COc1ccc(F)cc1C(=O)c1cnc(NC2CCN(S(C)(=O)=O)CC2)nc1N
Category label: true
//
Test smiles: CCNc1nc(C)c(-c2ccnc(Nc3cc(OC)c(OC)c(OC)c3)n2)s1
Category label: false
//
Test smiles: O=C(Nc1n[nH]c2ccc(-c3cn(Cc4ccccc4)nn3)cc12)c1cccc(Cl)c1
Category label: false
//
Test smiles: CNc1nc(C)c(-c2ccnc(Nc3ccc(N4CCN(C(C)=O)CC4)cc3)n2)s1
Category label: true
//
Test smiles: CCNC(=O)N1CCC(Nc2ncc(C(=O)c3ccccc3OC)c(N)n2)CC1
Category label: false
//
Test smiles: CNc1cncc(-c2c[nH]c(=O)c(NC(=O)c3ccc(N4CCC[C@H]4CN4CCCC4)cc3)c2)n1
Category label: false
//
Test smiles: CCOc1ccccc1C(=O)c1cnc(NC2CCN(C(C)=O)CC2)nc1N
Category label: false
//
Test smiles: CCNc1nc(C)c(-c2ccnc(Nc3ccc(CNC(C)=O)cc3)n2)s1
Category label: true
//
Test smiles: CN1CC[C@@H](c2c(O)cc(O)c3c(=O)cc(-c4ccccc4)oc23)[C@@H]1CO
Category label: true
//
Test smiles: CNc1nc(C)c(-c2ccnc(Nc3ccc(N4CCOCC4)cc3)n2)s1
Category label: false
//
Test smiles: COc1ccccc1-c1cc(Nc2ccc(F)c(NS(C)(=O)=O)c2)ncn1
Category label: false
//
Test smiles: CCS(=O)(=O)N1CCC(Nc2ncc(C(=O)c3ccccc3OC)c(N)n2)CC1
Category label: true
//
Test smiles: Cc1ccccc1C(=O)c1cnc(Nc2ccc(N3CCN(C)CC3)cc2)nc1N
Category label: false
//
Test smiles: CCOC(=O)N1CCC(Nc2ncc(C(=O)c3ccccc3C)c(N)n2)CC1
Category label: false
//
Test smiles: COc1ccc(Cl)cc1C(=O)c1cnc(NC2CCN(S(C)(=O)=O)CC2)nc1N
Category label: true
//
Test smiles: CCOC(=O)N1CCC(Nc2ncc(C(=O)c3ccccc3OC)c(N)n2)CC1
Category label: true
//
Test smiles: CCCC(=O)N1CCC(Nc2ncc(C(=O)c3ccccc3OC)c(N)n2)CC1
Category label: true
